- measured on: CLK1 (Homo sapiens, UniProt P49759)
- Construct: full-length human kinases from Carna Biosciences; purchased Carna Biosciences 04-126
- Sequence (P49759 1-526 isoform P49759-3): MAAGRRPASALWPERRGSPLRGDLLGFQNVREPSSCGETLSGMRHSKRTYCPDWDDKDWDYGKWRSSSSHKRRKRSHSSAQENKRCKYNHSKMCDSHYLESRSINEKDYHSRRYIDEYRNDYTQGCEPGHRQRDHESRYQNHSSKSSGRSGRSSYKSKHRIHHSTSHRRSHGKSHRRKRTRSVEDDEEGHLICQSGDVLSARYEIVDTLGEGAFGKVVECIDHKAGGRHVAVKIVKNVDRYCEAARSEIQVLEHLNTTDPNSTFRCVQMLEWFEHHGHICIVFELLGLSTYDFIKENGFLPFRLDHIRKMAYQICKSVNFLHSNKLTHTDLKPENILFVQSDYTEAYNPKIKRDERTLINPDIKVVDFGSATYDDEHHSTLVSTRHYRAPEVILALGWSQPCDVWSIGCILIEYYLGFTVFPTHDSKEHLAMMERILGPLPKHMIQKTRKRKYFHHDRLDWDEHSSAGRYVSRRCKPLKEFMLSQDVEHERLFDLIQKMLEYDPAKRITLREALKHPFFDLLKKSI
- test summary: Kinase TR-FRET assay, CLK1
- Assay type: biochemical
- condition: full-length human kinase, 10 μM ATP
Reported IC50 values for the following compounds.
Quick note: give the figure in µM, leave out the unit.

// known answers, use as guide
1) N#Cc1nc2ccc(-c3cc(N)nc(N)c3)nc2n1C1CCCC1 = 0.016
2) Cc1nc2ccc(-c3cc(N)nc(N)c3)nc2n1C1CCC1 = 0.012

Please examine the following record next.
Query: Value lookup for IC50; key = Cc1nc2ccc(-c3cc(N)nc(N)c3)nc2n1C[C@@H](C)Oc1ccccn1 (single isomer, unassigned)
Result: 0.04

* * *

- measured on: DYRK1A (Homo sapiens, UniProt Q13627)
- test summary: Cellular DYRK1 autophosphorylation assay in U2-OS cells
- Format: cell-based
- Set-up: full-length, wild-type human DYRK1A (NM_001396) with an HA tag; expressed in transfected cells; host or cells: human U2-OS osteosarcoma cells, transient transfection of a pcDNA3.1 plasmid
- condition: U2-OS cells transfected with HA-tagged human DYRK1A, 5 hours exposure; read-out: IC50 (μM) P-Ser520-Dyrk1A -Cell assay
compounds and their reported IC50
Please state the figure in µM; there is no need to write the unit.

Record excerpt, results attached:
1. Cc1nc2ccc(-c3cc(N)nc(N)c3)nc2n1C[C@H](C)Oc1ncccc1Cl (single isomer, unassigned) = 0.148
2. Cc1nc2ccc(-c3cc(N)nc(N)c3)nc2n1C1CCCC1 = 0.08
3. Cc1nc2ccc(-c3cc(N)nc(N)c3)nc2n1Cc1ccncc1 = 1

// switching to the query compound
Query: Form field: reported IC50 of `CCCn1c(C)nc2ccc(-c3cc(N)nc(N)c3)nc21`
Result: 0.2

* * *

- measured on: DYRK1A (Homo sapiens)
- test summary: Kinase TR-FRET assay, DYRK1A
- Format: biochemical
- Set-up: full-length, wild-type human DYRK1A (NM_001396) with an HA tag; expressed in transfected cells; host or cells: human U2-OS osteosarcoma cells, transient transfection of a pcDNA3.1 plasmid
- condition: full-length human kinase, 10 μM ATP
Some compounds, each annotated with its measured IC50.
Could you give me the number in µM? Just the number is fine.

For orientation, consider the following solved cases.
1) CCCCCn1c(C)nc2ccc(-c3cc(N)nc(N)c3)nc21 [Example 65] = 0.001
2) Cc1nc2ccc(-c3cc(N)nc(N)c3)nc2n1CCOc1cccc(Cl)n1 [Example 165] = 0.003
3) Cc1nc2ccc(-c3cc(N)nc(N)c3)nc2n1C[C@H](C)Oc1ccccc1 (single isomer, unassigned) [Example 107] = 0.008
4) Cc1nc2ccc(-c3cc(N)nc(N)c3)nc2n1CCc1cccc(C(F)(F)F)c1 [Example 91] = 0.004
5) COc1ccccc1CCCn1c(C)nc2ccc(-c3cc(N)nc(N)c3)nc21 [Example 69] = 0.002

Query: What does the record list as IC50 for CCCCn1c(CC)nc2ccc(-c3cc(N)nc(N)c3)nc21 [Example 157] ?
Result: 0.011

Query: Item: COC1CCCCC1CCn1c(C)nc2ccc(-c3cc(N)nc(N)c3)nc21 (stereo not shown) [Example 95]
Result: 0.003

* * *

- measured on: His-TEV-DYRK1A Kinase domain (aa127-485) (Homo sapiens, UniProt Q13627)
- Construct: His-TEV-DYRK1A Kinase domain (aa127-485); His tag (N); TEV protease cleavage site (N)
- test summary: Kinase ADP assay (ADP Hunter), DYRK1A kinase domain
- Assay type: biochemical
- condition: 20 μM ATP
# note: boundary value 0.02 µM maps to false (0); IC50 below it maps to true (1)

1. Cc1nc2ccc(-c3cc(N)nc(N)c3)nc2n1C[C@H]1C[C@@H]1c1ccccc1 (single isomer, unassigned) [Example 109] = false (0)
2. Cc1ccccc1O[C@@H](C)Cn1c(C)nc2ccc(-c3cc(N)nc(N)c3)nc21 (single isomer, unassigned) [Example 131] = true (1)
3. CCCCc1nc2ccc(-c3cc(N)nc(N)c3)nc2n1CCCC [Example 144] = true (1)
4. Cc1nc2ccc(-c3cc(N)nc(N)c3)nc2n1CCCCO [Example 70] = true (1)
5. Cc1nc2ccc(-c3cc(N)nc(N)c3)nc2n1CCOc1ccccn1 [Example 217] = true (1)

Query: Confirm or reject: IC50 of CCCCn1c(CC)nc2ccc(-c3cc(N)nc(N)c3)nc21 [Example 157] lies strictly below 0.02 µM
Result: false (0)

Query: Here is the next compound: COc1ccccc1O[C@H](C)Cn1c(C)nc2ccc(-c3cc(N)nc(N)c3)nc21 (single isomer, unassigned) [Example 142]
Result: false (0)

Query: Record: Cc1nc2ccc(-c3cc(N)nc(N)c3)nc2n1C[C@H](C)Oc1ccccn1 (single isomer, unassigned) [Example 174]
Result: false (0)

Query: Also check Cc1nc2ccc(-c3cc(N)nc(N)c3)nc2n1C1CCC1 [Example 23]
Result: true (1)

Query: Follow-up entry: Cc1nc2ccc(-c3cc(N)nc(N)c3)nc2n1CC1CC1(C)C (stereo not drawn) [Example 99]
Result: true (1)

Query: Similarly, Cc1cccc(OCCn2c(C)nc3ccc(-c4cc(N)nc(N)c4)nc32)c1 [Example 201] ?
Result: false (0)

Query: Same for COC1CCCCC1CCn1c(C)nc2ccc(-c3cc(N)nc(N)c3)nc21 (stereo not drawn) [Example 95]
Result: true (1)

* * *

IC50 values, listed per item
- measured on: DYRK1A (Homo sapiens)
- test summary: Kinase TR-FRET assay, DYRK1A
- Format: biochemical
- Design: full-length, wild-type human DYRK1A (NM_001396) with an HA tag; expressed in transfected cells; host or cells: human U2-OS osteosarcoma cells, transient transfection of a pcDNA3.1 plasmid
- condition: full-length human kinase, 10 μM ATP
State just the number; it will be interpreted in µM.

Completed entries (count: 3):
1. Cc1nc2ccc(-c3cc(N)nc(N)c3)nc2n1CCOc1cccc(Cl)c1 = 0.005
2. Cc1ccccc1CCn1c(C)nc2ccc(-c3cc(N)nc(N)c3)nc21 = 0.003
3. CCCC(C)n1c(C)nc2ccc(-c3cc(N)nc(N)c3)nc21 (stereo not shown) = 0.009

Query: Returns the measured IC50 for the input compound. Input: `CCCCn1c(C)nc2ccc(-c3cc(N)nc(NC(=O)C4CCCCC4)c3)nc21`
Result: 0.09

Query: How about this compound: `CCCCc1nc2ccc(-c3cc(N)nc(N)c3)nc2n1CCCC`
Result: 0.008

Query: Repeat for the following compound: `N#Cc1nc2ccc(-c3cc(N)nc(N)c3)nc2n1CCCC(F)(F)F`
Result: 0.005

Query: Another compound to check: Cc1nc2ccc(-c3cc(N)nc(N)c3)nc2n1C1CC(F)C1 (stereo not shown)
Result: 0.006

Query: Please answer likewise for `C=CCn1c(C)nc2ccc(-c3cc(N)nc(N)c3)nc21`
Result: 0.006

Query: Continue with `CC(=O)Nc1ccc(CCn2c(C)nc3ccc(-c4cc(N)nc(N)c4)nc32)cc1`
Result: 0.005

Query: Can you check `Cc1nn(C)c(C)c1Cn1c(C)nc2ccc(-c3cc(N)nc(N)c3)nc21` next?
Result: 0.177

* * *

- measured on: His-TEV-DYRK1A Kinase domain (aa127-485) (Homo sapiens, UniProt Q13627)
- Construct: His-TEV-DYRK1A Kinase domain (aa127-485); His tag (N); TEV protease cleavage site (N)
- test summary: Kinase ADP assay (ADP Hunter), DYRK1A kinase domain
- Assay type: biochemical
- condition: 20 μM ATP
reported metric: IC50 (µM)
Please give a number only; it is taken to be in µM.

Consider the following illustrative entries.
1. Cc1nc2ccc(-c3cc(N)nc(N)c3)nc2n1C[C@@H](C)Oc1ccc(Br)cn1 [Example 187] = 0.082
2. C=CCn1c(C#N)nc2ccc(-c3cc(N)nc(N)c3)nc21 [Example 225] = 0.012
3. C=CCn1c(C)nc2ccc(-c3cc(N)nc(N)c3)nc21 [Example 51] = 0.007
4. COc1ccccc1CCCn1c(C)nc2ccc(-c3cc(N)nc(N)c3)nc21 [Example 69] = 0.007

Next item in the queue.
Query: Notebook: pull reported IC50 for His-TEV-DYRK1A Kinase domain (aa127-485) (Homo sapiens, UniProt Q13627), entry N#Cc1nc2ccc(-c3cc(N)nc(N)c3)nc2n1C1CC1 [Example 224]
Result: 0.009

* * *

# IC50 listing for each entry below
- measured on: DYRK1B (Homo sapiens)
- Construct: full-length human kinases from Carna Biosciences; purchased Carna Biosciences 04-131
- Sequence (Q9Y463 whole entry): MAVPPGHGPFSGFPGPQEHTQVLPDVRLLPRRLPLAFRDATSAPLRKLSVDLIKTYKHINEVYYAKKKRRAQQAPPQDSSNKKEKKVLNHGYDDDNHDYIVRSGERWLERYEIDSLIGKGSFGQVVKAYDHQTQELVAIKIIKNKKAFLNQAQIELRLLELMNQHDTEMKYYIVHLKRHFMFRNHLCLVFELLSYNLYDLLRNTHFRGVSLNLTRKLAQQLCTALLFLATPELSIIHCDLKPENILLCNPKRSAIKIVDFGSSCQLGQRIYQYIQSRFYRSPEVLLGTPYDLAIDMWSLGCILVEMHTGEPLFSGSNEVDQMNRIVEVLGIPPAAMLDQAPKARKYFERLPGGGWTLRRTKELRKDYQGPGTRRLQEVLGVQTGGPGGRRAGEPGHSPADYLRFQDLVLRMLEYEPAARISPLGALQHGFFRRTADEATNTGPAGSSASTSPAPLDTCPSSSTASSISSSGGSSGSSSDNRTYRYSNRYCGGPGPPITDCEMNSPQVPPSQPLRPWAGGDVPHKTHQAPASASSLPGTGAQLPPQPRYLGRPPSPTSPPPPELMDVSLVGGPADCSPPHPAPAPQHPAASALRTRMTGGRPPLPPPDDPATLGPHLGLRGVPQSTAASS
- test summary: Kinase TR-FRET assay, DYRK1B
- Format: biochemical
- condition: full-length human kinase, 10 μM ATP
- Description: Inhibition of the enzymatic activity of human kinases was evaluated in a Time-Resolved Fluorescence Resonance Energy Transfer (TR-FRET) assay in 384-well reaction plates. […] Test compounds of the invention were added in reaction buffer at a range of concentrations from 0.1 nM to 30 μM. Following addition of EDTA (Sigma E7889, 10 mM) to stop the reaction, Europium-labelled mouse monoclonal antibody recognizing phospho-Thr232 in MBP (Perkin Elmer TRF0201, 1 nM) was added.
Give the value, in units of µM, as a plain number.

1. CCCCn1c(C)nc2ccc(-c3ccnc(N)c3)nc21 = 0.018

Query: Quick check: IC50 of `Cc1nc2ccc(-c3cc(N)nc(N)c3)nc2n1CCC(C)(C)C` ?
Result: 0.008

Query: Next entry: `CCCCCCn1c(C)nc2ccc(-c3cc(N)nc(N)c3)nc21`
Result: 0.007
